- test-description: in vitro
- assay-setup: African green monkey
quantity-measured: CC50

As a guide, the following entries are already answered.
{"compound": "COc1nc(N)nc2c1ncn2[C@@H]1O[C@H](CO)[C@@H](O)[C@@H]1O [Nelarabine]", "CC50": "> 100 µM"}
{"compound": "CC(C)C(=O)OC[C@H]1O[C@@H](n2ccc(NO)nc2=O)[C@H](O)[C@@H]1O [Molnupiravir]", "CC50": "> 100 µM"}
{"compound": "OC[C@H]1O[C@@H](n2cnc3c(N[C@@H]4CCOC4)ncnc32)[C@H](O)[C@@H]1O [Tecadenoson]", "CC50": "> 100 µM"}
{"compound": "CCC(CC)COC(=O)[C@H](C)N[P@](=O)(OC[C@H]1O[C@@](C#N)(c2ccc3c(N)ncnn23)[C@H](O)[C@@H]1O)Oc1ccccc1 [Remdesivir]", "CC50": "> 100 µM"}

Q) Any idea what CC50 was measured for CC(C)Nc1nc2cc(Cl)c(Cl)cc2n1[C@H]1O[C@@H](CO)[C@H](O)[C@@H]1O [Maribavir] ?
A) > 100 µM

Q) Likewise for O=c1[nH]cnc2c([C@@H]3N[C@H](CO)[C@@H](O)[C@H]3O)c[nH]c12 [Forodesine] ?
A) > 100 µM

Q) Likewise for Nc1ncnc2c1ncn2[C@@H]1O[C@H](CO)[C@@H](O)[C@@H]1O [Vidarabine, Arabinosyladenine] ?
A) > 100 µM

Q) Likewise for CC(C)=CCNc1ncnc2c1ncn2[C@@H]1O[C@H](CO)[C@@H](O)[C@H]1O [Riboprine, N ^6-(2-Isopentenyl)adenosine] ?
A) > 100 µM
